assay: Drug uptake in Swiss outbred mouse brain assessed as time required to reach peak value at 3 mg/kg, iv measured after 60 mins by LC-MS/MS analysis; assay type: ADME, organism-based

{"columns": ["SMILES STRING", "READOUT UNITS", "Tmax"],
 "data": [
  ["CCCCNc1ncc(C(=O)NC2CCN(CCF)CC2)c(N[C@H]2CC[C@H](O)CC2)n1", "min", 15],
  ["CCCCNc1ncc(C(=O)NC2CCN(CCCF)CC2)c(N[C@H]2CC[C@H](O)CC2)n1", "min", 15]
]}
